# Lookup of reported TGI keyed by entry
# Tested on: KM12 colon
# method description: NCI tumour cell line growth inhibition, 48 h

>  <compound>
O=C1CCC2(c3ccc(F)cc3)Nc3ccccc3N12 (stereo unspecified)

>  <TGI>
> 100 µM

$$$$
>  <compound>
CC1OCC2OC(C)OC(C3C4=C(CC(C)(C)CC4=O)OC4=C3C(=O)CC(C)(C)C4)C2O1 (stereo unspecified)

>  <TGI>
> 100 µM

$$$$
>  <compound>
O=C1CC(NC(=O)C(F)(F)F)c2c(Br)sc(N3CCC(c4ccccc4)CC3)c21 (stereo unspecified)

>  <TGI>
> 100 µM

$$$$
>  <compound>
Cc1ccc(-c2cc(-c3ccco3)nc(N)n2)o1

>  <TGI>
> 100 µM

$$$$
>  <compound>
CCCCN(CC)C(=O)C(=O)C1C(=O)Nc2ccccc2S1=O (stereo unspecified)

>  <TGI>
> 100 µM

$$$$
>  <compound>
c1ccc2c(c1)O[As](O[As]1Oc3ccccc3O1)O2

>  <TGI>
20.6 µM

$$$$
>  <compound>
Cc1ccc(N=Nc2c(O)c3ccccc3[nH]c2=O)c(S(=O)(=O)N(C)C)c1

>  <TGI>
> 100 µM

$$$$
>  <compound>
CC1(C)CCc2c(cc3c(c2O)CCC(C)(C)O3)O1

>  <TGI>
> 100 µM

$$$$
>  <compound>
O=C(O)CSc1n[nH]c(/C=C/c2ccccc2)n1

>  <TGI>
> 100 µM

$$$$
>  <compound>
O=C1Nc2ccc(Cl)cc2/C1=C\c1c(-c2ccc(F)cc2)nc2ccccn12

>  <TGI>
4.61 µM

$$$$
>  <compound>
COc1c2nc(CCl)n(C)c(=O)c2c(OC)c2c(=O)n(C)c(CCl)nc12

>  <TGI>
2.46 µM

$$$$

###

# Lookup of reported TGI keyed by entry
# Tested on: RXF 393 renal
# method description: NCI tumour cell line growth inhibition, 48 h

>  <compound>
C=CCN1C(=O)CS/C1=N\NC(=O)c1c(C)nc2sccn12

>  <TGI>
> 100 µM

$$$$
>  <compound>
CN(C)[C@@H]1C(=O)C(C(N)=O)=C(O)[C@@]2(O)C(=O)C3=C(O)c4c(O)cccc4C[C@H]3C[C@@H]12

>  <TGI>
3.11 µM

$$$$
>  <compound>
COC(=O)C1Cc2c(C)cccc2C1=O (stereo not given)

>  <TGI>
> 100 µM

$$$$
>  <compound>
Cn1ncc2cc(-c3cnc(N)c(Cl)c3N3CCC4(CCNC4=O)CC3)ccc21

>  <TGI>
54.3 µM

$$$$
>  <compound>
COc1cc(OC)cc(N2CCC(c3c(N)nc(N)nc3Cl)CC2)c1

>  <TGI>
> 100 µM

$$$$
>  <compound>
CC(=O)N[C@@H](Cc1ccc(O)cn1)C(=O)NCc1cccc(F)c1

>  <TGI>
> 100 µM

$$$$
>  <compound>
COc1ccc(-c2cc3cccc(OC)c3c(=O)o2)cc1OC

>  <TGI>
> 100 µM

$$$$
>  <compound>
CS(=O)(=O)c1nccc(-c2c(-c3cccc(OCc4ccc(F)cc4)c3)nc3sccn23)n1

>  <TGI>
> 100 µM

$$$$
>  <compound>
CCOC(=O)CC(C)C(C#N)(OP1(=O)OC(c2ccccc2)C(C)N1C)c1ccccc1 (stereo not given)

>  <TGI>
> 100 µM

$$$$
>  <compound>
N#Cc1c(-c2ccco2)c2c(n(C3OC(CO)C(O)C(O)C3O)c1=S)CCCC2 (stereo not given)

>  <TGI>
> 100 µM

$$$$
